- RUN DESCRIPTION: Plasma clearance in Sprague-Dawley rat at 1 mg/kg, iv
- Type: ADME, organism-based
- Parameters: dose 1 mg/kg, route intravenous
PROPERTY: clearance

INSERT INTO assay_data (input_smiles, measured_result) VALUES
  ('Cn1c(C#N)ccc1-c1cc(F)c2c(c1)C(C)(C)C(=O)N2', '4 mL/min/kg');

* * *

- RUN DESCRIPTION: Stability in rat liver microsome assessed as half life
- Format: ADME
- STUDY CONDITIONS: liver microsomes
Measured half-life, listed per entry for reference.
PROPERTY: half-life (min)

INSERT INTO results (input_smiles, bound_sign, measured_result) VALUES
  ('Cn1c(C#N)ccc1-c1ccc2c(c1)C(C)(C)C(=O)N2', '=', 6),
  ('Cn1c(C#N)ccc1-c1ccc2c(c1)CC(=O)N2', '>', 30),
  ('Cn1c(C#N)ccc1-c1cc(F)c2c(c1)C(C)(C)C(=O)N2', '=', 26),
  ('Cn1c(C#N)ccc1-c1ccc2c(c1F)C(C)(C)C(=O)N2', '=', 2),
  ('CCC1(CC)C(=O)Nc2ccc(-c3ccc(C#N)n3C)cc21', '=', 10),
  ('Cn1c(C#N)ccc1-c1cc2c(cc1F)NC(=O)C2(C)C', '=', 30);

* * *

- RUN DESCRIPTION: Drug level in cynomolgus monkey at 1 mg/kg, iv
- Assay type: ADME, organism-based, Macaca fascicularis
- Design: dose 1 mg/kg, route intravenous
- STUDY CONDITIONS: in vivo
PROPERTY: C0 (ng/mL)

INSERT INTO assay_data (input_smiles, result_unit, measured_result) VALUES
  ('Cn1c(C#N)ccc1-c1cc(F)c2c(c1)C(C)(C)C(=O)N2', 'ng/mL', 856);

* * *

- ASSAY TARGET: Androgen receptor (Homo sapiens, UniProt P10275)
- Sequence (P10275 whole entry): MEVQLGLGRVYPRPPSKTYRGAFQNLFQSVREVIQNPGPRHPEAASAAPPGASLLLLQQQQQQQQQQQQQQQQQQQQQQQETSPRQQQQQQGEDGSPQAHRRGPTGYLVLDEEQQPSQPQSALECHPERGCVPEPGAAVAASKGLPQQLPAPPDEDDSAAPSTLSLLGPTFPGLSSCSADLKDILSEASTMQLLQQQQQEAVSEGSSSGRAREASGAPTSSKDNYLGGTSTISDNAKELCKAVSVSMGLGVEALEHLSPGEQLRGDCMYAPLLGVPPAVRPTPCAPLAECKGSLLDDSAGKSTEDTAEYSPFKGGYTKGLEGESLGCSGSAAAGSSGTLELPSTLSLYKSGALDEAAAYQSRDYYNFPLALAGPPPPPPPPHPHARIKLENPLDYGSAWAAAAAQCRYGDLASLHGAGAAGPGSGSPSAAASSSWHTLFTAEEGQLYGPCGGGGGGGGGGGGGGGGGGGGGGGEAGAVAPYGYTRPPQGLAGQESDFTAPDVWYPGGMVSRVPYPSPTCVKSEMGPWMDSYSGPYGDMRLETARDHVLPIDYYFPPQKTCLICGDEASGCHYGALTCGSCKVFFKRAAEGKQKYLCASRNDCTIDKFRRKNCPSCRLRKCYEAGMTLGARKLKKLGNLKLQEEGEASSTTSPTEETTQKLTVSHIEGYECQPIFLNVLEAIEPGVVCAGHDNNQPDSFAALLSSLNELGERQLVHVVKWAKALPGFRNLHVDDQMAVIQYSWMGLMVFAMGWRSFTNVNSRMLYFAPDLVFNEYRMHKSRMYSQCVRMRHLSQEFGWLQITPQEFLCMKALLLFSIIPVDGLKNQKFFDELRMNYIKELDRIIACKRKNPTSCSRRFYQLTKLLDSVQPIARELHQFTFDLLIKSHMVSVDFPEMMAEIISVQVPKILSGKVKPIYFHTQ
pIC50: −log10 of the molar value.
PROPERTY: pIC50

INSERT INTO results (input_smiles, measured_result) VALUES
  ('Cn1c(C#N)ccc1-c1cc(F)c2c(c1)C(C)(C)C(=O)N2', 6.71);

* * *

- ASSAY TARGET: Mineralocorticoid receptor (Homo sapiens)
- Sequence (P08235 whole entry): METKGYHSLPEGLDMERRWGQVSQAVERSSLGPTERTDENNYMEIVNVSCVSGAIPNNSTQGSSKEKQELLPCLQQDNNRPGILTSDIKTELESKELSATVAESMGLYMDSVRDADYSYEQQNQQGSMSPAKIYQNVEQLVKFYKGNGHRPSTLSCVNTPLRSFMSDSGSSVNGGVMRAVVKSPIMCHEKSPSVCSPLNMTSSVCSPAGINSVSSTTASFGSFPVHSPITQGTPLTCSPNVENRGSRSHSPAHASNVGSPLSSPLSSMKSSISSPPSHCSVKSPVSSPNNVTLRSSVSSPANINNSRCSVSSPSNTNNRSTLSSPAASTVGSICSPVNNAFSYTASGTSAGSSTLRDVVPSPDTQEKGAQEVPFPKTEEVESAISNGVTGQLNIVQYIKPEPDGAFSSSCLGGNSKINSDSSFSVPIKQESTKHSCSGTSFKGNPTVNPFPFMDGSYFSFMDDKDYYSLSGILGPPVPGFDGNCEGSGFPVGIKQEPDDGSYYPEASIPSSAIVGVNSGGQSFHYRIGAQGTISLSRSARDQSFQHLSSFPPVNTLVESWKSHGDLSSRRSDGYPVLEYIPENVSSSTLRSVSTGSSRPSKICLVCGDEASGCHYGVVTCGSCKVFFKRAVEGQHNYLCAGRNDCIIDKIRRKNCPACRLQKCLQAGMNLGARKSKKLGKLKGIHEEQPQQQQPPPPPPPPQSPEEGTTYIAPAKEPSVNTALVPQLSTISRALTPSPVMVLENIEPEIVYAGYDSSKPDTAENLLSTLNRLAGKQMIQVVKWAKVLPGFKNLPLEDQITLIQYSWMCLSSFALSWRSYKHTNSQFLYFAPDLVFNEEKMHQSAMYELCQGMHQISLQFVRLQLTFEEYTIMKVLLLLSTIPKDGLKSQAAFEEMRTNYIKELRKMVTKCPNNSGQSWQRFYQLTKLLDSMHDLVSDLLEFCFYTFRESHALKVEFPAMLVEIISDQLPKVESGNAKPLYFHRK
- RUN DESCRIPTION: Antagonist activity at human MR ligand binding domain expressed in african green monkey COS7 cells in presence of aldosterone by Gal4 hybrid assay
PROPERTY: IC50 (nM)

INSERT INTO results (input_smiles, assay_target, measured_result) VALUES
  ('Cn1c(C#N)ccc1-c1cc(F)c2c(c1)C(C)(C)C(=O)N2', 'Mineralocorticoid receptor (Homo sapiens)', 3700),
  ('COC[C@]1(OC)CC[C@H]2[C@@H]3CCC4=CC(=O)CCC4=C3[C@@H](c3ccc(/C=N/O)cc3)C[C@@]21C', 'Mineralocorticoid receptor (Homo sapiens)', 1600);

* * *

- RUN DESCRIPTION: Half life in cynomolgus monkey at 5 mg/kg, po
- Assay type: ADME, organism-based, Macaca fascicularis
- Design: dose 5 mg/kg, route oral
- STUDY CONDITIONS: in vivo
PROPERTY: half-life (h)

INSERT INTO assay_data (input_smiles, property, result_unit, measured_result) VALUES
  ('Cn1c(C#N)ccc1-c1cc(F)c2c(c1)C(C)(C)C(=O)N2', 'half-life', 'h', 15.7);

* * *

- RUN DESCRIPTION: Oral bioavailability in cynomolgus monkey at 5 mg/kg
- Assay type: ADME, organism-based, Macaca fascicularis
- STUDY CONDITIONS: in vivo
PROPERTY: bioavailability (%)

INSERT INTO results (input_smiles, property, measured_result) VALUES
  ('Cn1c(C#N)ccc1-c1cc(F)c2c(c1)C(C)(C)C(=O)N2', 'bioavailability', 49);

* * *

- System: Rattus norvegicus
- RUN DESCRIPTION: Drug level in Sprague-Dawley rat at 1 mg/kg, iv
- Assay type: ADME, organism-based
- Design: dose 1 mg/kg, route intravenous
- STUDY CONDITIONS: in vivo
PROPERTY: Drug uptake (ng/mL)

INSERT INTO measurements (input_smiles, measured_result) VALUES
  ('Cn1c(C#N)ccc1-c1cc(F)c2c(c1)C(C)(C)C(=O)N2', 528);

* * *

- RUN DESCRIPTION: AUC (0 to infinity) in Sprague-Dawley rat at 1 mg/kg, iv
- Assay type: ADME, organism-based
- Design: time infinity, dose 1 mg/kg, route intravenous
- STUDY CONDITIONS: plasma
PROPERTY: AUC(0-inf) (µg·h/mL)

INSERT INTO measurements (input_smiles, result_unit, measured_result) VALUES
  ('Cn1c(C#N)ccc1-c1cc(F)c2c(c1)C(C)(C)C(=O)N2', 'µg·h/mL', 4.65);

* * *

- RUN DESCRIPTION: Cmax in Sprague-Dawley rat at 5 mg/kg, po
- Assay type: ADME, organism-based
- Set-up: dose 5 mg/kg, route oral
- STUDY CONDITIONS: in vivo
PROPERTY: Cmax (ng/mL)

INSERT INTO results (input_smiles, property, measured_result) VALUES
  ('Cn1c(C#N)ccc1-c1cc(F)c2c(c1)C(C)(C)C(=O)N2', 'Cmax', 414);

* * *

Measured half-life, listed per entry for reference.
- RUN DESCRIPTION: Half life in Sprague-Dawley rat at 0.5 mg/kg, iv
- Type: ADME, organism-based
- Parameters: dose 0.5 mg/kg, route intravenous
- STUDY CONDITIONS: in vivo
PROPERTY: half-life (h)

INSERT INTO assay_data (input_smiles, result_unit, measured_result) VALUES
  ('Cn1c(C#N)ccc1-c1ccc2c(c1)C(C)(C)C(=O)N2', 'h', 3),
  ('Cn1c(C#N)ccc1-c1cc(F)c2c(c1)C(C)(C)C(=O)N2', 'h', 9.5);

* * *

- RUN DESCRIPTION: Stability in cynomolgus monkey liver microsome assessed as half life
- Assay type: ADME, Macaca fascicularis
- STUDY CONDITIONS: liver microsomes
PROPERTY: half-life

INSERT INTO measurements (input_smiles, measured_result) VALUES
  ('Cn1c(C#N)ccc1-c1cc(F)c2c(c1)C(C)(C)C(=O)N2', '19 min'),
  ('Cn1c(C#N)ccc1-c1ccc2c(c1)CC(=O)N2', '> 30 min'),
  ('CCC1(CC)C(=O)Nc2ccc(-c3ccc(C#N)n3C)cc21', '15 min'),
  ('Cn1c(C#N)ccc1-c1ccc2c(c1)C(C)(C)C(=O)N2', '13 min');

* * *

- RUN DESCRIPTION: Plasma clearance in cynomolgus monkey at 1 mg/kg, iv
- Type: ADME, organism-based, Macaca fascicularis
- Parameters: dose 1 mg/kg, route intravenous
PROPERTY: clearance (mL/min/kg)

INSERT INTO assay_data (input_smiles, measured_result) VALUES
  ('Cn1c(C#N)ccc1-c1cc(F)c2c(c1)C(C)(C)C(=O)N2', 7);

Where these numbers come from: ChEMBL document CHEMBL1144664
